We begin with a simple list: items and their reported viability, T/C.
# System: 379773-124-R-J2-PDC spheroid viability
# test-protocol: Anticancer human tumor 379773-124-R-J2-PDC patient-derived endometrial carcinoma cell line growth inhibition [POLQ]
# experimental-conditions: second compound 0.1 µM; first compound 0.1 µM; hits give low values; spheroids with HUVEC and MSC

{"compound": "O=C(Nc1ccc(O)c(NS(=O)(=O)c2ccc(F)cc2)c1)c1ccc(-c2ccccc2)cc1 + COC1C(OC(N)=O)C(O)C(Oc2ccc3c(O)c(NC(=O)c4ccc(O)c(CC=C(C)C)c4)c(=O)oc3c2C)OC1(C)C", "study-target": "379773-124-R-J2-PDC spheroid viability", "unit-symbol": "%", "viability, T/C": 77.2}
{"compound": "C=CC(=O)N1CCN(c2nc(=O)n(-c3c(C)ccnc3C(C)C)c3nc(-c4c(O)cccc4F)c(F)cc23)C(C)C1 (stereo not given) + Nc1ccc(C#CCN(C(=O)Cc2ncc(C(F)(F)F)cc2C(F)(F)F)c2ccc(F)cc2)nn1", "study-target": "379773-124-R-J2-PDC spheroid viability", "unit-symbol": "%", "viability, T/C": 89.1}
{"compound": "CCc1cc2c(N3CCc4c(cc(Cn5ccnc5)cc4-c4cn(C)nc4C(F)(F)F)C3=O)cc(C)nc2c(OC)n1 + COC1C(OC(N)=O)C(O)C(Oc2ccc3c(O)c(NC(=O)c4ccc(O)c(CC=C(C)C)c4)c(=O)oc3c2C)OC1(C)C", "study-target": "379773-124-R-J2-PDC spheroid viability", "unit-symbol": "%", "viability, T/C": 62.3}
{"compound": "CC(C)n1c(=O)n(C)c2cnc3cc(F)c(-c4ccc(OCCCN5CCCCC5)nc4)cc3c21 + Nc1ccc(C#CCN(C(=O)Cc2ncc(C(F)(F)F)cc2C(F)(F)F)c2ccc(F)cc2)nn1", "study-target": "379773-124-R-J2-PDC spheroid viability", "unit-symbol": "%", "viability, T/C": 92.6}
{"compound": "C#Cc1c(F)ccc2cc(O)cc(-c3ncc4c(N5CC6CCC(C5)N6)nc(OCC56CCCN5CC(F)C6)nc4c3F)c12 (stereo not given) + Nc1ccc(C#CCN(C(=O)Cc2ncc(C(F)(F)F)cc2C(F)(F)F)c2ccc(F)cc2)nn1", "study-target": "379773-124-R-J2-PDC spheroid viability", "unit-symbol": "%", "viability, T/C": 110}

---

# Test system: 379773-124-R-J2-PDC spheroid viability
# test-protocol: Anticancer human tumor 379773-124-R-J2-PDC cell line growth inhibition [POLQ];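 also: spheroids exposed to drugs for seven days before readout; percent viability relative to DMSO vehicle control taken as 100%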
# experimental-conditions: second compound 10 µM; first compound 0.0316 µM; hits give low values; spheroids with HUVEC and MSC
Label T when viability, T/C < 80%; otherwise F.

{"molecule": "CC1COCCN1c1cc(C2(S(C)(=N)=O)CC2)nc(-c2ccnc3[nH]ccc23)n1 (stereo not given) + COC1C(OC(N)=O)C(O)C(Oc2ccc3c(O)c(NC(=O)c4ccc(O)c(CC=C(C)C)c4)c(=O)oc3c2C)OC1(C)C", "study-target": "379773-124-R-J2-PDC spheroid viability", "label": "F"}
{"molecule": "CCCS(=O)(=O)Nc1ccc(F)c(C(=O)c2c[nH]c3ncc(-c4ccc(Cl)cc4)cc23)c1F + Nc1ccc(C#CCN(C(=O)Cc2ncc(C(F)(F)F)cc2C(F)(F)F)c2ccc(F)cc2)nn1", "study-target": "379773-124-R-J2-PDC spheroid viability", "label": "F"}
{"molecule": "Cn1ncnc1[C@H]1c2n[nH]c(=O)c3cc(F)cc(c23)N[C@@H]1c1ccc(F)cc1 + Cc1cccc(N(C)C(=O)C2C(O)CCN2c2nc(C)cc(C(F)(F)F)c2C#N)c1", "study-target": "379773-124-R-J2-PDC spheroid viability", "label": "T"}
